The proteins listed here are annotated with their Percent cleavage.
Biological target: AxCT mask27 EGFR EH104 L061 version 1
quantity kind: Percent cleavage (%)

{"protein": "Matriptase (protein) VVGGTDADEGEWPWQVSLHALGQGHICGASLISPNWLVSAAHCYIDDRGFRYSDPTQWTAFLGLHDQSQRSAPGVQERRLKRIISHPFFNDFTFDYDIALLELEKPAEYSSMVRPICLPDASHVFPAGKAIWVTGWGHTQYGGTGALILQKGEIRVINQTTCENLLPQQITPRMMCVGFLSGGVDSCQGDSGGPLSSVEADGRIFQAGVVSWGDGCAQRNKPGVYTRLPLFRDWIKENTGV", "uom": "%", "test value": 20}
{"protein": "Cathepsin G (protein) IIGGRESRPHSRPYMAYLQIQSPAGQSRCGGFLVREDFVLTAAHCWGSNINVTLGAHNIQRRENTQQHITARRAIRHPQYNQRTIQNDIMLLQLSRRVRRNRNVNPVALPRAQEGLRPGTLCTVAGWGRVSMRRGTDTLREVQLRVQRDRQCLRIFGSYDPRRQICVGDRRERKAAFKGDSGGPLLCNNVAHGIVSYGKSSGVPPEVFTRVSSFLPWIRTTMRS", "uom": "%", "test value": 0}
{"protein": "MMP-12 (protein) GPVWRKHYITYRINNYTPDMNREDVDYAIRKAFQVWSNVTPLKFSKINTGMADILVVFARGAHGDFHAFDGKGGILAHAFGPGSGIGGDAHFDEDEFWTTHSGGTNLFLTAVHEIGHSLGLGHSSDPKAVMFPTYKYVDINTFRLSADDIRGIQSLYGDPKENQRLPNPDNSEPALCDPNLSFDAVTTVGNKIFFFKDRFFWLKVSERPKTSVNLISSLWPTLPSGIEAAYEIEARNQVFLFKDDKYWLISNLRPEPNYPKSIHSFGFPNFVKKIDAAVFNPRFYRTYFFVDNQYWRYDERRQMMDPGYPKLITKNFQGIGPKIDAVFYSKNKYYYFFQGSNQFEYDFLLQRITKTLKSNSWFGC", "uom": "%", "test value": 49}
{"protein": "MMP-1 (protein) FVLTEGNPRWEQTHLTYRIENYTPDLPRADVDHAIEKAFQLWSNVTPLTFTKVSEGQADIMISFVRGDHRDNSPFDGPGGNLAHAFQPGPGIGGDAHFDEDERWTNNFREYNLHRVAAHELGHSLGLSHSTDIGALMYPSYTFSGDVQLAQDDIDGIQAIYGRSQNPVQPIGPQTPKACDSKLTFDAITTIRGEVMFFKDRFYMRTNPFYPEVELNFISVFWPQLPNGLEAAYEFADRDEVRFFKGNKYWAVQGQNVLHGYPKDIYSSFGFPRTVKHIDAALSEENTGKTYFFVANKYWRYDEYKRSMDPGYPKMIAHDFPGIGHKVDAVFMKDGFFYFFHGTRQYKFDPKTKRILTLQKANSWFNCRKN", "uom": "%", "test value": 0}
